Data credit: patent US12729377B2

Test system: ANGPTL3 protein
Experiment: Example 7: serum ANGPTL3 protein by ELISA in mice
Type: in vivo, C57bl/6 mice
Design: key: ratio: (level/pre-treatment day -1 level) ÷ mean of D5W control group
Conditions: Day 29, 0.5 mg/kg single SC injection on day 1, n=3
Protocol: To further assess the in vivo activity of additional ANGPTL3 RNAi agents that are designed to target position 304 on the ANGPTL3 gene, six- to eight-week-old female C57bl/6 mice were used. […] Each of the RNAi agents included a modified sequence and an N-acetyl-galactosamine-containing targeting ligand conjugated to the 5′ terminal end of the sense strand. […] ANGPTL3 protein levels in serum were measured by ELISA assay (R&D Systems), according to the manufacturer's recommendations. […]
In the oligonucleotide strings, read from the 5' end, every base follows the letter of its sugar. An asterisk marks phosphorothioate; unmarked linkages are phosphodiester. Other units and linkages are bracketed, terminal groups are in braces. A string of capitals states the bases alone. {NAG37} = tridentate N-acetyl-galactosamine targeting ligand, structure (NAG37)s; [invAb] = inverted abasic unit; m = 2'-O-methyl; f = 2'-fluoro
Give measured Avg ANGPTL3, normalized to pre-treatment and control for each item. Keep answers brief.
Numbers only.

Hey, can you go through the list below and give me Avg ANGPTL3, normalized to pre-treatment and control for every item?
1. AD05775: RNAi agent duplex: antisense AM07235-AS, sense AM07608-SS (antisense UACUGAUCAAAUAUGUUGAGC; sense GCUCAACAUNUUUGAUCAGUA; (NAG37)s GalNAc ligand; RNAi agent antisense strand modified sequence; RNAi agent sense strand modified sequence; modified_base 10 n = 2′-O-methyl-2-aminoadenosine-3′-phosphate)
2. AD05777: RNAi agent duplex: antisense AM07235-AS, sense AM07610-SS (antisense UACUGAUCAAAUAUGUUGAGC; sense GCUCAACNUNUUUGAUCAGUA; (NAG37)s GalNAc ligand; RNAi agent antisense strand modified sequence; RNAi agent sense strand modified sequence; modified_base 8, 10 n = 2′-O-methyl-2-aminoadenosine-3′-phosphate)

1. 0.300
2. 0.345

Give one value of Avg ANGPTL3, normalized to pre-treatment and control per listed substance.
1. AD05418: RNAi agent duplex: antisense AM07159-AS, sense AM07158-SS (antisense mU*fU*mU*fGmAfAmUfUmAfAmUfGmUfCmCfAmUfGmGfG*mU; sense {NAG37}*[invAb]*mAmCmCmCmAmUmGmGfAfCfAmUmUmAmAmUmUmCmAmAmA*[invAb])
2. AD05488: RNAi agent duplex: antisense AM07235-AS, sense AM07234-SS (antisense mU*fA*mC*fUmGfAmUfCmAfAmAfUmAfUmGfUmUfGmAfG*mC; sense {NAG37}*[invAb]*mGmCmUmCmAmAmCmAfUfAfUmUmUmGmAmUmCmAmGmUmA*[invAb])
3. AD05308: RNAi agent duplex: antisense AM07003-AS, sense AM07002-SS (chain 1 mU*fG*mU*fUmGfAmAfUmUfAmAfUmGfUmCfCmAfUmGfG*mA; chain 2 {NAG37}*[invAb]*mUmCmCmAmUmGmGmAfCfAfUmUmAmAmUmUmCmAmAmCmA*[invAb])

1. 0.758
2. 0.469
3. 0.523
